Origin of the recorded values: patent US20080045510A1

Assay: solubility in aqueous media / water
Type: physicochemical
Conditions: even in the presence of surfactants
Readout: solubility

*Q* Which solubility reading was recorded for the compound COc1cc(N2CCN(C3CCN(c4ccc(F)c5cccnc45)CC3)CC2)c2ncccc2c1 [free base] ?
*A* ~0.4 µg/mL
